Measured PBM binding z-score accompanies every entry in the list below.
Test system: PPARg:RXRa 30nM:10nM, anti-RXR (NR concentration 30 nM, RXRa partner concentration 10 nM)
method: PBM binding z-score (relative to random genomic background probes); higher = stronger binding; sequences stand for … in GC…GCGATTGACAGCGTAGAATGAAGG
Respond with the number and no other words.

// solved cases for PBM binding z-score follow
sequence entry	PBM binding z-score
ACTATTAGTTCACTTAGGGCAACCGATACGACGC	0.591
CCGACTGGGGCAGAAAGGTTACCCTACCATCCGG	0.336
CGAACTAGGTCATTGACAGGACAGTAAATAGTAA	3.43

Query block: // fetch PBM binding z-score for CCTATTAATTGACCATAAGGGCAACCGAAGCTCG ; system: PPARg:RXRa 30nM:10nM, anti-RXR (NR concentration 30 nM, RXRa partner concentration 10 nM)
Result block: 0.302

* * *

Test system: PXR:RXRa (NR concentration 270 nM, RXRa partner concentration 90 nM)
method: PBM binding z-score (relative to random genomic background probes); higher = stronger binding; sequences stand for … in GC…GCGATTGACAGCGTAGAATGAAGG
Parameter threshold = 1. Response is Criterion met when PBM binding z-score meets or exceeds it, else Criterion not met.

sequence entry	class name
TCGAGCAGGTTAGGGGCATTCAGAATGGCGTCGA	Criterion not met

In the following, a different sequence is considered.
Query block: I'd appreciate it if you could say whether GATACAGGGTCAGCTAGAGGCCAGAATATGGAAA has PBM binding z-score at least equal to 1.
Result block: Criterion met

* * *

Test system: LXRb homodimer (NR concentration 270 nM)
method: PBM binding z-score (relative to random genomic background probes); higher = stronger binding; sequences stand for … in GC…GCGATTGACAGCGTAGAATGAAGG
Parameter threshold = 0.9. Response is Fulfilled when PBM binding z-score meets or exceeds it, else Not fulfilled.

sequence entry	target or system	class name
ATCGAAAGGTCGACTAGGTGAGTATACACCGTTT	LXRb homodimer (NR concentration 270 nM)	Not fulfilled

Query block: I'd appreciate it if you could say whether AACTCTAGGTAACAAGTTCAGTGAAAGAGAGGAC has PBM binding z-score at least equal to 0.9.
Result block: Not fulfilled

Query block: I'd appreciate it if you could say whether CAGCCTAGGTTAGGGCCAGTATAGGAGGAACGTT has PBM binding z-score at least equal to 0.9.
Result block: Not fulfilled

Query block: I'd appreciate it if you could say whether TGGCCTAGGTCAGATCGGGCCAGTATACGCTATA has PBM binding z-score at least equal to 0.9.
Result block: Not fulfilled

Query block: I'd appreciate it if you could say whether CGTCAAAGTTCAGGGTAACGTAACAGAAAGCAGC has PBM binding z-score at least equal to 0.9.
Result block: Not fulfilled

Query block: I'd appreciate it if you could say whether TAGCCTAGTTCAGATCGGGCCAGTATACGCTATA has PBM binding z-score at least equal to 0.9.
Result block: Not fulfilled

* * *

Test system: PPARg:RXRa (NR concentration 180 nM, RXRa partner concentration 90 nM)
method: PBM binding z-score (relative to random genomic background probes); higher = stronger binding; sequences stand for … in GC…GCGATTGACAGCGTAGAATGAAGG
quantity: PBM binding z-score

// solved cases for PBM binding z-score follow
sequence entry	target or system	PBM binding z-score
CCCGCTAGGTCAATGGTCAGCTAAAGCAGCTCGC	PPARg:RXRa (NR concentration 180 nM, RXRa partner concentration 90 nM)	5.11
ATCGAAAGGTCGAGGTGAGAATAGAGAAAGGGAA	PPARg:RXRa (NR concentration 180 nM, RXRa partner concentration 90 nM)	3.58
AGAATGAGGTTATACGTAGATGAGGGAAGAAAGT	PPARg:RXRa (NR concentration 180 nM, RXRa partner concentration 90 nM)	2.17
TCTAGTTGGTGAAAGGTCACACACTCGAAATGCG	PPARg:RXRa (NR concentration 180 nM, RXRa partner concentration 90 nM)	10.8
TCTAGCAGGCCAGAGGGTCTCTCAAGAGGTACGG	PPARg:RXRa (NR concentration 180 nM, RXRa partner concentration 90 nM)	0.13

As a next step, examine the sequence that follows.
Query block: Using known records, supply PBM binding z-score for ATACCAAGGTGATCGTGAGGGCGTTGATACTAAC
Result block: 0.369
